- System: TAZ nuclear translocation in SW1990 cells
- test summary: TAZ Nuclear Translocation Assay
- Assay type: cell-based
- test parameters: Homo sapiens, 4 hours
readout name: EC50 (nM)
State the answer as a number, implicitly in nM.

COCc1nccc2c(N3CCC4(CCNC4)CC3)nc(-c3ccncc3)nc12    2800
COc1cncc2nc(-c3ccncc3)nc(N3CCC4(CCN(CC(F)F)C4)CC3)c12    570
Cc1n[nH]cc1-c1nc(N2CCC3(CC2)CCN(C2CCCC2)C3)c2ccncc2n1    180

Query (molecule): CC(C)N1CCC2(CCN(c3nc(-c4ccncc4)nc4cnccc34)CC2)C1 ; field requested: EC50 1600

Request the reported EC50 associated with CC(C)(O)CN1CCC2(CCN(c3nc(-c4ccncc4)nc4cnccc34)CC2)C1 220

# get_value(readout='EC50', item= Clc1nccc2c(N3CCC4(CCNC4)CC3)nc(-c3ccncc3)nc12 ) 1100

# EC50 lookup, item F[C@H]1CNCC12CCN(c1nc(-c3ccncc3)nc3cnccc13)CC2 1800

Dear colleague, I am looking for the recorded EC50 of the following molecule: COc1cncc2nc(-c3c[nH]nc3C)nc(N3CCC4(CCN(CC5COC5)C4)CC3)c12 260

----------
- tested system: Human LATS2 catalytic domain (Homo sapiens (Human))
- Sequence (Q9NRM7 553-1088): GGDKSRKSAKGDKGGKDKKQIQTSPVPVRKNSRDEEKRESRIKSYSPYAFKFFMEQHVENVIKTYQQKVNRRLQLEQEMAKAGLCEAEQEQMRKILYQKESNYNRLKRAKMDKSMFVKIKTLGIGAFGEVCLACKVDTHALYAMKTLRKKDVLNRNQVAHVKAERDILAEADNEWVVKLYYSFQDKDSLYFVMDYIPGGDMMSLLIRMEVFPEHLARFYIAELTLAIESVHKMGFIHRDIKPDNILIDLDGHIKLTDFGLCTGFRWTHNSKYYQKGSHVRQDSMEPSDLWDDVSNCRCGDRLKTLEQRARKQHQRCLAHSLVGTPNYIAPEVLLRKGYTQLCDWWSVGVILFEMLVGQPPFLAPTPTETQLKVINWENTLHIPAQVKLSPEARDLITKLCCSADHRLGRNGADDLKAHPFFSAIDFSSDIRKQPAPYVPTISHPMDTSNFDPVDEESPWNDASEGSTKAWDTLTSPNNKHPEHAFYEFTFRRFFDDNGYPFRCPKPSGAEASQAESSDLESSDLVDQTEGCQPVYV
- Sequence (Q7L9L4 whole entry partner, the tested form may be a part): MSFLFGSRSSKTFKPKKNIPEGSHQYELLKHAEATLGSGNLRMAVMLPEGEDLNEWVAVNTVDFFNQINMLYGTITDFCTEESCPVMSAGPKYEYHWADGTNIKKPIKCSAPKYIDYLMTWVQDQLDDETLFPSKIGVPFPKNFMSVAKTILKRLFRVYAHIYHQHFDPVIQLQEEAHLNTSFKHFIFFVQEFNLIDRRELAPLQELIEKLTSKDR
- test summary: LATS2 High ATP HTRF Assay
- Type: biochemical
- test parameters: no asterisk: LATS2 High ATP HTRF Assay, 5000 μM ATP, 0.05 nM LATS2
readout name: Ki (nM)
Lab book: enter the figure in nM, no units written.

Bench note: what Ki did CC(C)(O)CN1CCC2(CCN(c3nc(-c4ccncc4)nc4cncc(OC5COC5)c34)CC2)C1 show? 0.034

May I ask what Ki has been recorded for COCC1CC2(CCN(c3nc(-c4ccncc4)nc4cnccc34)CC2)CN1C (racemic) ? 0.35

Need Ki of c1cc(-c2nc(N3CCC4(CCN(c5cn[nH]c5)C4)CC3)c3ccncc3n2)ccn1 , thanks. 3.29

Look up Ki: CC(=O)N1CC(Oc2cncc3nc(-c4ccncc4)nc(N4CCC5(CCN(C)C5)CC4)c23)C1 11

----------
- Tested on: TAZ nuclear translocation in SW1990 cells
- test summary: TAZ Nuclear Translocation Assay
- Format: cell-based
- test parameters: Homo sapiens, 4 hours
We label by threshold. Values of EC50 strictly beneath 400 nM are satisfied. Values of 400 nM and up are not satisfied.

Here's an entry: Cc1n[nH]cc1-c1nc(N2CCC3(CC2)CCN([C@@H]2CCC[C@H]2O)C3)c2ccncc2n1 (single isomer, unassigned) . Is its EC50 below 400 nM? not satisfied

Hello, I'm reviewing records and need to know if EC50 of OC1CC(N2CCC3(CCN(c4nc(-c5ccncc5)nc5cnccc45)CC3)C2)C1 (stereo not shown) is below 400 nM. Could you check? satisfied

Strictly below 400 nM in EC50? C[C@H](O)CN1CCC2(CCN(c3nc(-c4ccncc4)nc4cnccc34)CC2)C1 (single isomer, unassigned) satisfied

Hi there! Is EC50 for Cc1n[nH]cc1-c1nc(N2CCC3(CCN(C[C@H](C)O)C3)CC2)c2ccncc2n1 (single isomer, unassigned) below 400 nM, do you know? not satisfied

Consider COCC1CC2(CCN(c3nc(-c4ccncc4)nc4cnccc34)CC2)CN1C (racemic) . Does its EC50 lie strictly below 400 nM? not satisfied

# TODO verify EC50 < 400 nM strictly for this compound: OCC1CC2(CCN(c3nc(-c4ccncc4)nc4cnccc34)CC2)CN1C1CCCC1 (stereo not shown) satisfied
